- assay-explanation: Storage stability of processing agent (fire retardant for fibers)
- Format: physicochemical
- Parameters: key: ◯: no agglomeration and no sedimentation are seen by visual checking; X: agglomeration and sedimentation are seen by visual checking
- details: processing agent with 30 parts compound per 100 parts polyacrylic acid ester emulsion, 25° C. for 24 hours
- Procedure: After interior car sheet cloth for automobiles was coated with the following processing liquid, its flame resistance and physical properties were tested. (test cloth): Polyester 100% woven car sheet cloth (weight of 300 g/m^2) was used. […]
experimental-endpoint: Stability

Example results:
>>> print(df.to_string())
                                   molecule  experimental_endpoint  result
0  O=P1(Cc2ccccc2)OCC2(CO1)COP(=O)(Cc1ccccc1)OC2 (single isomer, unassigned) [FR-5]              Stability       ◯
1  CC(c1ccccc1)P1(=O)OCC2(CO1)COP(=O)(C(C)c1ccccc1)OC2 (stereo not drawn)              Stability       ◯
2  O=P1(Cc2ccccc2)OCC2(CO1)COP(=O)(Cc1ccccc1)OC2 (single isomer, unassigned) [FR-1]              Stability       ◯
3  O=P1(CCc2ccccc2)OCC2(CO1)COP(=O)(CCc1ccccc1)OC2 (stereo not drawn)              Stability       ◯
4  O=P1(Cc2ccccc2)OCC2(CO1)COP(=O)(Cc1ccccc1)OC2 (single isomer, unassigned) [FR-6]              Stability       X

Proceeding to the next molecule to report its Stability.
// query # return recorded Stability for entry O=P1(C(c2ccccc2)c2ccccc2)OCC2(CO1)COP(=O)(C(c1ccccc1)c1ccccc1)OC2 (stereo not drawn)
// result ◯

* * *

- assay-explanation: Particle size distribution by Microtrack HRA
- Format: physicochemical
// (vi) Volume standard median diameter lookup, one value per entry
The answer is to be given in μm; state only the numeric part.

>>> df
                                   molecule                 experimental_endpoint  measure_unit  recorded_number
0  O=P1(Cc2ccccc2)OCC2(CO1)COP(=O)(Cc1ccccc1)OC2 (single isomer, unassigned) [FR-5]  (vi) Volume standard median diameter            μm               40
1  CC(c1ccccc1)P1(=O)OCC2(CO1)COP(=O)(C(C)c1ccccc1)OC2 (stereo not drawn) [FR-2]  (vi) Volume standard median diameter            μm               20
2  O=P1(Cc2ccccc2)OCC2(CO1)COP(=O)(Cc1ccccc1)OC2 (single isomer, unassigned) [FR-6]  (vi) Volume standard median diameter            μm               21

// query Output measured (vi) Volume standard median diameter for this item: O=P1(CCc2ccccc2)OCC2(CO1)COP(=O)(CCc1ccccc1)OC2 (stereo not drawn) [FR-3]
// result 22

// query Give the reported (vi) Volume standard median diameter for this molecule. O=P1(Cc2ccccc2)OCC2(CO1)COP(=O)(Cc1ccccc1)OC2 (single isomer, unassigned) [FR-1]
// result 18

// query State, in one line, measured (vi) Volume standard median diameter of O=P1(C(c2ccccc2)c2ccccc2)OCC2(CO1)COP(=O)(C(c1ccccc1)c1ccccc1)OC2 (stereo not drawn) [FR-4]
// result 25

* * *

- assay-explanation: ΔpH value of filtrate after stirring compound in dispersant solution
- Format: physicochemical
- details: 1 g compound in 1% phenol type nonionic surfactant solution, |pH1−pH2|
experimental-endpoint: (v) ΔpH value
Respond numerically, and do not add a unit to the figure.

Study these solved cases before continuing.
In [3]: df
Out[3]:
                                   compound  recorded_number
0  O=P1(C(c2ccccc2)c2ccccc2)OCC2(CO1)COP(=O)(C(c1ccccc1)c1ccccc1)OC2 (stereo not drawn) [FR-4]              0.7
1  O=P1(Cc2ccccc2)OCC2(CO1)COP(=O)(Cc1ccccc1)OC2 (single isomer, unassigned) [FR-1]              0.5
2  O=P1(Cc2ccccc2)OCC2(CO1)COP(=O)(Cc1ccccc1)OC2 (single isomer, unassigned) [FR-5]              0.5
3  O=P1(CCc2ccccc2)OCC2(CO1)COP(=O)(CCc1ccccc1)OC2 (stereo not drawn) [FR-3]              0.3
4  O=P1(Cc2ccccc2)OCC2(CO1)COP(=O)(Cc1ccccc1)OC2 (single isomer, unassigned) [FR-6]              1.3

As a next step, examine the compound that follows.
// query Please give the documented (v) ΔpH value of CC(c1ccccc1)P1(=O)OCC2(CO1)COP(=O)(C(C)c1ccccc1)OC2 (stereo not drawn) [FR-2]
// result 0.6
